Assay Name: Inhibition of IL-17A production in PMA/ionomycin-stimulated mouse EL4 cells measured by ELISA
Assay type: functional, cell-based
Recorded Endpoint: IC50 (µM)
Respond with the bare value in µM.

CN(C)CCNc1ccc(-c2noc(Cc3c[nH]c4ccccc34)n2)cc1 : 7.73

Now, please, on to the next molecule.
Recorded IC50 for COc1cc(-c2nc(-c3ccc(NCCN(C)C)cc3)no2)cc(OC)c1OC , please? 5.29
